# assay.explanation: NCI Yeast Anticancer Drug Screen. Data for the bub3 strain (AID 167)
# experimental.setup: S. cerevisiae bub3 mutant strain, at 50.0 µM (retest, dose inferred, filed as 5.0)
Compounds without any hit were thinned out: in the full panel of roughly 79,000, 15% have a hit. The source made the active and inactive calls. Cut-off read from the data, not from the text of the source: active = growth inhibition above about 70%; inactive = the rest.
Your answer must be one of the following: t (active), f (inactive)

1. COc1ccccc1CN1CCCN(Cc2ccccc2OC)C1c1ccccc1F : f
2. CC1CC(c2ccccc2)(c2ccccc2)C(=O)C(C)N1C (stereo not given) : f
3. Clc1cccc(C2SCc3nc4ccccc4n32)c1Cl (stereo not given) : t
4. CC(C)(C)c1ccc2c(c1)C(O)(c1ccccc1)C1OC1(C(C)(C)C)C2=O (stereo not given) : t

# lookup: test call for CCN(CC)CCCCNc1ccc(Cl)cc1 f

# lookup: test call for CC(C)=CN(C)C (tested in a mixture with another compound) t

====

# assay.explanation: NCI Yeast Anticancer Drug Screen. Data for the mlh1 rad18 strain (AID 175)
# experimental.setup: S. cerevisiae mlh1 rad18 strain growth inhibition; at 5.0 µM (retest, dose inferred, filed as 0.5); active compounds read high
Compounds without any hit were thinned out: in the full panel of roughly 79,000, 15% have a hit.
measured.quantity: growth inhibition (%)
Return type: number; implicit unit %.

Solved entries:
1. Cc1ccccc1NC(=S)N/N=C(/c1ccccc1)c1ccccn1 : 26
2. CSc1c(C)n([O-])c2cc(Cl)c(Cl)cc2[n+]1=O : 23

Please supply the value of reported growth inhibition for the item O=C(O)CC/C(=N\Nc1ccccc1)C(=O)O 5

Please supply the value of reported growth inhibition for the item CC1(C)C2CCC(C2)C1OC(=O)c1ccccc1C(=O)O (stereo not drawn) -21

Please supply the value of reported growth inhibition for the item CCOc1ccccc1C(=O)Nc1cc(C)nn1-c1ccccc1 -1

Please supply the value of reported growth inhibition for the item CC(=O)OCCc1ccc(CCc2ccccc2)cc1 6

Please supply the value of reported growth inhibition for the item O=[N+]([O-])c1ccc(-c2nc3c(o2)CCC3)cc1 -92

====

growth inhibition reference
# assay.explanation: NCI Yeast Anticancer Drug Screen. Data for the bub3 strain (AID 167)
# experimental.setup: S. cerevisiae bub3 mutant strain, at 50.0 µM (retest, dose inferred, filed as 5.0), active compounds read high
# Experimental: Growth inhibition of yeast strains with defined genetic alterations is measured as a screen for potential anti-cancer activity. Selected strains with alterations in DNA damage repair or cell cycle control were exposed to compounds and growth inhibition was measured relative to vehicle treated controls. The strain used in this assay is bub3
The panel holds about 79,000 compounds, 15% with a hit somewhere; the sample as a whole holds those more often.
Return type: number; implicit unit %.

1. C=CCc1cccc(/C=N\N=C(/N)NO)c1O : 8
2. C=C(c1ccc2nc(NC(=O)OC)[nH]c2c1)c1cccs1 : 84

Please supply the value of reported growth inhibition for the item O=C1CSC(=S)N1c1cccc(Cl)c1 92

Please supply the value of reported growth inhibition for the item CN(C)CCOc1cc2c(c3ccccc13)-c1ccccc1C2=O 99

Please supply the value of reported growth inhibition for the item Cc1cnc(Sc2ncccc2[N+](=O)[O-])[nH]c1=O 9

Please supply the value of reported growth inhibition for the item O=C1C(=O)N(c2ccc(Cl)c(Cl)c2)C(=O)C(=O)C1c1nc2ccccc2o1 96

Please supply the value of reported growth inhibition for the item CN(C)CC1CCC/C(=C\c2ccc(Cl)c(Cl)c2)C1=O (configuration not stated) 98

Please supply the value of reported growth inhibition for the item CCN(CC)CCC(=O)/C=C/c1ccc(Cl)c(Cl)c1 98

Please supply the value of reported growth inhibition for the item Cc1occc1C(=S)Nc1ccc(Cl)c(COC(C)(C)C)c1 90

Please supply the value of reported growth inhibition for the item Cc1nc(-c2ccccc2)nc2c1nc(C(C)C)n2Nc1ccccc1 35

Please supply the value of reported growth inhibition for the item Cn1c(C2CCC(=O)N2Cc2ccccc2)n[nH]c1=S (configuration not stated) -2

Please supply the value of reported growth inhibition for the item N#Cc1c(Cl)nsc1-c1ccc([N+](=O)[O-])cc1 80

Please supply the value of reported growth inhibition for the item FC(F)(F)c1ccc(NC(=S)SCc2ccc3c(c2)OCO3)cc1 -6

Please supply the value of reported growth inhibition for the item CCC(C)OC(=O)Nc1cccc(Cl)c1 (configuration not stated) -8

Please supply the value of reported growth inhibition for the item O=C(N/C(=C\c1ccc(Br)cc1)c1nc2ccccc2[nH]1)c1ccccc1 78

Please supply the value of reported growth inhibition for the item CN(C)C1C=CCC(c2ccccc2)C1[N+](=O)[O-] (configuration not stated) 79

Please supply the value of reported growth inhibition for the item CCCC(CC)c1cc(O)c(O)cc1C(CC)CCC (configuration not stated) 54

Please supply the value of reported growth inhibition for the item Cc1nc2c(cnn2-c2ccccc2)c(=O)o1 -73

Please supply the value of reported growth inhibition for the item CC1(C)OC2C(COC(c3ccccc3)(c3ccccc3)c3ccccc3)OC(n3ccc(=O)[nH]c3=O)C2O1 (configuration not stated) 94

Please supply the value of reported growth inhibition for the item CCOc1c(N=Nc2ccccc2OC)c(-c2ccccc2)nn1C(N)=S 29

Please supply the value of reported growth inhibition for the item CCCCCCCCCCCCNC(=O)c1cc[n+](Cc2ccc(Cl)c(Cl)c2)cc1 98

Please supply the value of reported growth inhibition for the item O=c1c(Cl)c(Cl)c(=O)c2sc3cc(Cl)ccc3[nH]c1=2 19

Please supply the value of reported growth inhibition for the item CCc1cc2c(cc1O)CC[C@@H]1[C@@H]2CC[C@]2(C)[C@@H](O)CC[C@@H]12 98

Numbers sourced from PubChem BioAssay (NCI).
